# SYSTEM UNDER TEST: T1, Ep-CAM (UniProt P16422 24-265, limits assumed)
# T1 construct: Amine coupled to a CM5 chip in the Biacore assays
# T1 sequence (looked up): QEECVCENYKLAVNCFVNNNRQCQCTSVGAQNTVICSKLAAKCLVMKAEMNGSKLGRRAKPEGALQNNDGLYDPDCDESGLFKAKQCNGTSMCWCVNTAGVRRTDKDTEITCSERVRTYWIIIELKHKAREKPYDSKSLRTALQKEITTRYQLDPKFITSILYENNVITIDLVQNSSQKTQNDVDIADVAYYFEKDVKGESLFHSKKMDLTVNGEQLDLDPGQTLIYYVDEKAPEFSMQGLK
# TEST: Biacore, Fab periplasmic extract
Measured fold difference in affinity vs parental ING-1 accompanies every entry in the list below.
Numbers only; they are read as fold.

[[record]]
binder = "ING-1 light chain L99R (Fab, V domains shown, Fab, periplasmic extract) VH: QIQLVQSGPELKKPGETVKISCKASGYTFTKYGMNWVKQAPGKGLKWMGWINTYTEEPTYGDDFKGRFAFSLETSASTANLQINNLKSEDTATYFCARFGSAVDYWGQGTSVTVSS VL: DIVMTQAAFSNPVTLGTSGSISCRSSKSLLHSNGITYLYWYLQKPGQSPQLLIYQMSNLASGVPDRFSSSGSGTDFTLRISRVEAEDVGVYYCAQNLERPRTFGGGTKLEMKR"
unit_annotation = "fold"
numeric_value = 0.04


Kindly review the next binder as well.
// fold difference in affinity vs parental ING-1 lookup, binder = ING-1 light chain L99S (Fab, V domains shown, Fab, periplasmic extract) VH: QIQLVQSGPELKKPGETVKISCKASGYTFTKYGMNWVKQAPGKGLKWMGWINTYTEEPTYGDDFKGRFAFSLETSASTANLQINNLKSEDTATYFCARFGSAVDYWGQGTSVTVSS VL: DIVMTQAAFSNPVTLGTSGSISCRSSKSLLHSNGITYLYWYLQKPGQSPQLLIYQMSNLASGVPDRFSSSGSGTDFTLRISRVEAEDVGVYYCAQNLESPRTFGGGTKLEMKR , result: 0.04

// data source = patent US20110118131A1
